Data provenance is PubChem BioAssay (NCI).

Tested on: SF-539 CNS
Assay: NCI-60 one-dose screen, 48 h
Conditions: 10 µM
Protocol: Cells are grown in 96 well plates and exposed to the test compound for 48 hours. Compounds are tested at a single concentration, which is 10^-5 M for most compounds. The reported endpoint is percent growth (GI% or GIPRCNT), where numbers from 0 - 100% represent growth inhibition, and numbers from -100% - 0 represent cell death. For example, a value of 40 represents 60% growth inhibition. A value of 0 means no net growth occurred over the course of the experiment. […]
This is part of a sample that, as a whole, favours compounds with a hit. Of some 83,000 tested, about 20% had one in any assay. Active and inactive are the calls of the source. Rule for the calls: active = growth percent below 10; inactive = the rest.
Tick one outcome: active, inactive

{"columns": ["COMPOUND", "ANSWER LABEL"],
 "data": [
  ["COc1ccc(COC(=O)CC(C)C)cc1", "inactive"],
  ["COc1cccc2c1C(=O)c1c(O)c3c(c(O)c1C2=O)C[C@@](O)(C(=O)COC(=O)c1ccccc1)C[C@@H]3OC1CC(N)C(O)C(C)O1 (stereo partly specified)", "active"],
  ["O=c1cc(CSc2nnc(-c3ccccc3)n2-c2ccc(F)cc2)c2ccc3ccccc3c2o1", "inactive"]
]}

Continue with the compound presented below.
Test call for this compound, please: `COc1c(C)c(C)c(OC)c2c1[nH]c(=O)c1c3cccnc3cn21`
inactive

====

Readings of growth for the listed compounds
tested on: U251 CNS; test: NCI-60 one-dose screen, 48 h (100 = growth as untreated, 0 = no growth, -100 = all killed); conditions: 10 µM
The panel holds about 83,000 compounds, 20% with a hit somewhere; the sample as a whole holds those more often.
Kindly answer with a numeric value in %, unit omitted.

Study these solved cases before continuing.
{"columns": ["MOLECULE", "SYSTEM TESTED", "growth (%)"],
 "data": [
  ["COC(=O)c1ccc(Cn2ccc(=O)[nH]c2=O)cc1", "U251 CNS", 112],
  ["O=C1CC[C@@H](C(=O)N[C@H]2CSSC[C@@H](C(=O)N/C=C/c3ccc(O)cc3)NC(=O)[C@H](Cc3ccccc3)NC(=O)[C@@H]3CCCN3C(=O)[C@@H]3CCCN3C2=O)N1", "U251 CNS", 96.2],
  ["COc1cc(-c2nc3cc(Cl)c(Cl)cc3[nH]2)ccc1OCC(=O)NN", "U251 CNS", 91.2],
  ["O=c1oc2c3ccc4cnccc4c3[nH]c2c2ccccc12", "U251 CNS", -35]
]}

Please find the next compound below.
Quote U251 CNS growth for entry `O=C(CSc1nnc(-c2ccc(Cl)cc2)o1)c1ccccc1` .
96

====

Test system: M14 melanoma
Test: NCI-60 one-dose screen, 48 h
Conditions: 10 µM
Experimental: Growth inhibition of the M14 human tumor cell line is measured as a screen for anti-cancer activity. Cells are grown in 96 well plates and exposed to the test compound for 48 hours. Compounds are tested at a single concentration, which is 10^-5 M for most compounds. The reported endpoint is percent growth (GI% or GIPRCNT), where numbers from 0 - 100% represent growth inhibition, and numbers from -100% - 0 represent cell death. For example, a value of 40 represents 60% growth inhibition. […]
This is part of a sample that, as a whole, favours compounds with a hit. Of some 83,000 tested, about 20% had one in any assay. Activity calls are given as the source filed them. Rule for the calls: active = growth percent below 10; inactive = the rest.
Your response should consist of one outcome taken from label 1 for active, label 0 for inactive

Would you mind telling me which call this test gave `Cc1ccc2nc(-c3ccc(OCC(=O)N=Nc4c(O)[nH]c5ccccc45)cc3)[nH]c2c1` ?
label 0

Recorded test call requested for `Cc1cc(C)c2c(Nc3ncnc4c3sc3nc(C)cc(C)c34)n[nH]c2n1`
label 0

Assay outcome for CCN1CCOC1C(C)C (stereo unspecified) : what was it?
label 0

Hey, what did the test say about `Cc1ccc(/C(CS(=O)(=O)c2ccc(C)cc2)=N\O)cc1` ?
label 0

Which result was noted for this compound in the test: `Cc1cc(C)c2nc(C)c(C)[n+]([O-])c2c1`
label 0

Tell me the assay call for `Cc1cc(C#Cc2ccccc2)ccc1-n1c(/C=C/c2cc(O)ccc2O)nc2ccccc2c1=O` please.
label 1

====

system: ACHN renal; assay: NCI-60 one-dose screen, 48 h; conditions: 10 µM
About 83,000 compounds went through this panel and 20% of them were active in at least one assay; those are over-represented in the sample as a whole. Calls of active or inactive are those of the source. Rule for the calls: active = growth percent below 10; inactive = the rest.
Entry note: the call must match one of active, inactive

# fetch the recorded call for `COc1cc(C(=O)n2nc(N)c3c(C)cc(C)nc32)cc(OC)c1OC` here
inactive

Would you mind telling me which call this test gave `Cc1ccccc1C1=N[C@@H](Cc2ccccc2)C(=O)c2c(nc3ccccn23)N1` ?
inactive

// outcome(item) with item = COc1cccc2c1C(=O)c1c(O)c3c(c(O)c1C2=O)C[C@@](O)(C(=O)COC(=O)c1cccnc1)C[C@@H]3OC1CC(N)C(O)C(C)O1 (stereo partly specified)
active

Hi team, can someone confirm the assay call for `Cc1nnc2c3nnc(-c4ccc(Cl)cc4)n3c3ccccc3n12` ?
inactive

Entry `CCOCC[P+](c1ccccc1)(c1ccccc1)c1ccccc1` : call = ?
inactive

Please let me know the test result on file for `CCCCCCCC/C=C/CCCCCCCCC1=NCCN1CCO` .
inactive

====

tested on: HCT-116 colon; assay: NCI-60 one-dose screen, 48 h; conditions: 10 µM
Compounds without any hit were thinned out: in the full panel of roughly 83,000, 20% have a hit. Activity calls are given as the source filed them. Rule for the calls: active = growth percent below 10; inactive = the rest.
Write down the outcome that applies. Available outcomes: active, inactive

A selection of reference data follows.
{"columns": ["COMPOUND", "ANSWER LABEL"],
 "data": [
  ["Cc1cccc2c1O/C(=C\\c1ncc([N+](=O)[O-])n1C)C2=O", "active"],
  ["O=C1/C(=C/c2cccs2)CCC/C1=C\\c1cccs1", "inactive"],
  ["O=C1NN(c2ccccc2)C(c2cccnc2)=N/C1=C\\c1cccnc1", "inactive"],
  ["C=C1C(=O)O[C@H]2[C@H]1CC/C(COC(=O)OCCCCCOC(=O)OC/C1=C/CC[C@@]3(C)O[C@H]3[C@H]3OC(=O)C(=C)[C@@H]3CC1)=C\\CC[C@@]1(C)O[C@@H]21", "active"]
]}

In the following, a different compound is considered.
Assay result, entry CN(C)c1ccc2c(c1)OC(N)=C(C#N)C2c1ccc2c(c1)CCO2 (stereo not given) — outcome?
active

====

Listed below: growth values for each entry.
system: SN12C renal; test: NCI-60 one-dose screen, 48 h (100 = growth as untreated, 0 = no growth, -100 = all killed); conditions: 10 µM
About 83,000 compounds went through this panel and 20% of them were active in at least one assay; those are over-represented in the sample as a whole.
Entry rule: numbers only, all in %.

Example entries begin here.
{"columns": ["COMPOUND", "SYSTEM TESTED", "growth (%)"],
 "data": [
  ["COc1ccc(-c2nc(-c3nc4ccc(OC)cc4[nH]3)c3ccccn23)cc1", "SN12C renal", 71.4],
  ["Cc1nc(Nc2nc3ccccc3o2)nc(-c2cccc([N+](=O)[O-])c2)c1C(=O)Nc1ccc(F)c(Cl)c1", "SN12C renal", 7.04],
  ["CC(C)C[C@H](NC(=O)Cn1ccc2ccccc2c1=O)B(O)O", "SN12C renal", 75.8],
  ["O=C(NC1CCCC1)c1ccc(N2CCC(NCc3cccc(C(F)(F)F)c3)CC2)cc1", "SN12C renal", 94.2],
  ["COc1cc2c3c(cccc3c1)C(=O)N(CCN1CCCC1)C2=O", "SN12C renal", 29.7]
]}

Provide one value: measured growth of `Nc1ncc(-c2ccc(C(F)(F)F)cc2)c(NC2CCCCCC2)n1`
29.9

Annotate the compound `Oc1ccc(/C=N\Nc2ccccn2)c(O)c1` with its measured growth.
24.1

For COc1ccc(C2C=C(c3ccc(Cl)c(Cl)c3)N=C3SC(C)=CN32)cc1OC (stereo unspecified) , write its growth.
70.6

====

tested on: OVCAR-4 ovarian; experiment: NCI-60 one-dose screen, 48 h (100 = growth as untreated, 0 = no growth, -100 = all killed); details: 10 µM
This is part of a sample that, as a whole, favours compounds with a hit. Of some 83,000 tested, about 20% had one in any assay.
growth values by entry
Give just the number in %; leave the unit off.

See these solved cases before continuing.
{"columns": ["COMPOUND", "MEASUREMENT LABEL", "NUMERIC RESULT"],
 "data": [
  ["CC(=O)c1ccc(NCn2nc(-c3ccc(Cl)cc3)oc2=S)cc1", "growth", 113],
  ["O=C(O)c1ccccc1C(=O)c1cccc2c(F)cccc12", "growth", 98.4],
  ["O=C(Nc1cccc([N+](=O)[O-])c1)NN1CCCCCC1", "growth", 98.1],
  ["Cc1c(C(=O)N[C@H](CO)Cc2ccccc2)[nH]c2ccc(Cl)cc2c1=O", "growth", 108],
  ["CCOC(=O)/C(C#N)=C(/C)C1CC1", "growth", 104],
  ["COc1cc(C(c2c[nH]c3ccccc23)N2CCCC2)ccc1OCc1ccccc1 (stereo not drawn)", "growth", 91.8]
]}

Here's the next entry for you.
Report growth for `Cc1ccc(-n2c(-c3cc4c([nH]c5ccccc54)c(-c4cccc(O)c4)n3)n[nH]c2=S)cc1`
26.4
